Reported melting point values for the following molecules.

Molecule	Measured Endpoint	Result
C[C@]1(COc2ccc(N3CCN(CC=Cc4ccc(C(F)(F)F)cc4)CC3)cc2)Cn2cc([N+](=O)[O-])nc2O1	melting point	199.7 to 202 °C
C[C@]1(COc2ccc(N3CCCN(c4ccc(OC(F)(F)F)cc4)CC3)cc2)Cn2cc([N+](=O)[O-])nc2O1	melting point	134 to 137.9 °C
CN(CC1CCN(c2ccc(OC(F)(F)F)cc2)CC1)c1ccc(OC[C@@]2(C)Cn3cc([N+](=O)[O-])nc3O2)cc1	melting point	172.5 to 175.2 °C

Shifting focus to the molecule that follows.
Any idea what melting point was measured for C[C@]1(COc2ccc3nc(N4CCC(Cc5ccc(OC(F)(F)F)cc5)CC4)ccc3c2)Cn2cc([N+](=O)[O-])nc2O1 ?
184.9 to 185.9 °C

Reference for the values: patent US8163753B2
